# TEST TARGET: T1, canine CD20 (canine, UniProt Q3C2E2 1-297)
# T1 construct: Full-length canine CD20 stably expressed on MDCK II (or HEK293) cells for flow cytometry and ADCC; In the CDC assay it is natively expressed on CLBL-1 canine lymphoma cells; also called cCD20; dog CD20
# T1 chain: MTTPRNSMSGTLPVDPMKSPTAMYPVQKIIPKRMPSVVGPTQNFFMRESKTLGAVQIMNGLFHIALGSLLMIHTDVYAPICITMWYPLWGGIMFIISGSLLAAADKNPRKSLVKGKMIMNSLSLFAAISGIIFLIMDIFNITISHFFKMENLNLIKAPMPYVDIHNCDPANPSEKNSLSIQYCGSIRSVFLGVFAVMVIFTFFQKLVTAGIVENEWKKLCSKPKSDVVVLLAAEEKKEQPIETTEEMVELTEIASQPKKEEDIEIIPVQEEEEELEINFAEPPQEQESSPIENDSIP
# ASSAY DETAILS: flow cytometry on cCD20-expressing MDCK II cells, 10 ug/ml antibody, FITC anti-canine IgG (FIG. 3A)
OBSERVATION TYPE: binding result

PMX002 mAb (antibody, V domains shown, Fully canine mAb with dog IGGB and dog IGLC5 constant regions; Expressed in CHO cells) VH: EVQLVESGGDLVKPGGSLRLSCVASGIIFSNYHMSWVRQVPGKGLQWVAYINSGGSTINYADGVKGRFTISRDNAKNSLYLQMNSLRGEDTAVYYCTTYDSWGQGTLVTVSS VL: SYVLTQLPSKNVTLKQPAHITCGGDNIGSKSVHWYQQKLGQAPVLIIYYDSSRPTGIPERFSGANSGNTATLTISGALAEDEADYYCQVWDSSVNVFGGGTHLTVLG: binds
